- test.target: T1, human CD3 (human, UniProt P07766 23-207; P09693 23-182; P04234 22-171)
- T1 construct: whole, on cells; also called CD3 on Jurkat T cells; CD3 on primary human T cells
- experiment.notes: apparent KD (KDapp), flow cytometry titration on purified primary human T cells
observable: pKd
pKd here is simply -log10 of the concentration when that concentration is written in mol/L.

Below are worked cases with known answers.
INSERT INTO measurements (binder, readout_value) VALUES
  ('F332-3E9 (antibody, mouse IgG2a, V domains shown, also called F332-3E9-2; F332-3E9 (12G4)) VH: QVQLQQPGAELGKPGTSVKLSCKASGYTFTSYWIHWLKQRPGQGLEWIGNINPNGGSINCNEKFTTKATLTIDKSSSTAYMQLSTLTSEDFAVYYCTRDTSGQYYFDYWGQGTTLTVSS VL: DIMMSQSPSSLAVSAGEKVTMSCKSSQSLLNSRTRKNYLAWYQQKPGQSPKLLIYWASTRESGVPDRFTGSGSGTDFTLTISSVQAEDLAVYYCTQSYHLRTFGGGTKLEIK', 9.00),
  ('F332-5F2 (antibody, mouse IgG2b, V domains shown, also called F332-5F2-2; F332-5F2 (6G8, 13A3)) VH: QVQLQQPGAELGKPGTSVKLSCKASGYTFTSYWMHWVKQRPGQGLEWIGNINPNGGDSNYNEKFKSKATLTVDKSSSTAYMQLSTLTSEDSAVYYCTRDISGQYYFDFWGQGTSLTVFS VL: DILMSQSPSSLAVSAGEQVTMSCKSSQSLLNSRTRKNYLAWYQQKPGQSPKLLIFWASTRKSGVPDRFTGSGSGTYFTLTISSVQAEDLAVYYCTQSYNLRTFGGGTKLEIK', 9.43),
  ('F332-10B6 (antibody, mouse IgG2a, V domains shown, also called F332-10B6-2; F332-12B5-1) VH: QVQLQQPGAELGKPGTSVNLSCKASGYTFTDYWIHWVKQRPGQGLEWIGNINPNSGDTNYNENFKTKATLTVDRSSSTAYMQLSSLTSEDSAVYYCTRDISGQYYFDFWGQGTTLTVSS VL: DIVMSQSPSSLAVSAGEKVTMSCKSSQSLLNSRTRKNYLAWYQQKPGQSPKLLIYWASTRESGVPDRFTGSGSGTDFTLTISSVQAEDLAVYYCIQSYNLRTFGGGTKLEIK', 7.52),
  ('F332-12F6 (antibody, mouse IgG2a, V domains shown, also called F332-12F6-2) VH: QVQLQQPGAELGKPGTSVKLSCKASGYTFTSYWIHWVKQRPGQGLEWIGNINPNSGSTNYNEKFKSKATLTVDKSSSTAYMQLSTLTSEDSAVYYCTRDISGQYYFDYWGQGTTLTVSS VL: DIVMSQSPSSLAVSAGEKVTMSCKSSQSLLNSRTRKSYLAWYQQKPGQSPKLLIYWASTRESGVPDRFTGSGSGTDFTLTISSVQAEDLAVYYCIQSYNLRTFGGGTKLEIK', 9.70);

Please look at the following binder next.
Challenge: Report pKd for F332-7E3 (antibody, mouse IgG2a, V domains shown, also called F332-7E3-2) VH: QVQLQQPGAELGKPGTSVKLSCKASGYTFTSYWIHWVKQRPGQGLEWIGNINPNSGSINYNEKFKSKATLTVDKSSSTAYMQLSTLTSEDFAVYYCTRDTSGQYYFDYWGQGTTLTVSS VL: DIVMSQSPSSLAVSAGEKVTMSCKSSQSLLNSRTRKNYLAWYQQKPGQSPKLLIYWASTRESGVPDRFTGSGSGTDFTLTISSVQAEDLAVYYCKQSYHLRTFGGGTKLEIK please.
Response given: 9.66

Values from patent US20250051443A1
